# protocol: E. coli growth modulation, two-sided OD650, primary screen, E. coli filamentation project, strain DRC41, 24 h (AID 1093);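 further: MC1000 strain lacking acrAB efflux and sulA so SOS filamentation is blocked; test concentration not given here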
# study-conditions: OD650, 24 h, higher = more signal, called active from +8 up or from −8 down
Decide by z-score: equal to or exceeding 0.06 means Yes, less means No.

Example entries begin here.
INSERT INTO results (chemical_smiles, classification) VALUES
  ('COCCOC(=O)N1C(=O)[C@@]2(c3cc(C#Cc4ccc(OC)cc4)ccc31)[C@H](C(=O)N1CCN(c3ncccn3)CC1)[C@H]1C(=O)O[C@H](c3ccccc3)[C@H](c3ccccc3)N1[C@@H]2c1ccccc1OCCO', 'No'),
  ('COCCOC(=O)N1C(=O)[C@@]2(c3cc(C#CCNC(N)=O)ccc31)[C@H](C(=O)N1CCCCCCC1)[C@H]1C(=O)O[C@H](c3ccccc3)[C@H](c3ccccc3)N1[C@@H]2c1ccc(O)cc1', 'Yes');

Challenge: Assess whether reported z-score for "COc1ccccc1CN1C(=O)c2ccccc2[C@@H](C(=O)NC(C)C)[C@@H]1c1ccc(CO)cc1" sits at 0.06 or higher.
Response given: Yes

Challenge: Assess whether reported z-score for "C=CCN1C(=O)[C@@]2(O[C@@H](CCn3cc([C@H](O)c4ccccc4)nn3)[C@H]([Si](C)(C)c3ccc(OC)cc3)[C@H]2C)c2ccccc21" sits at 0.06 or higher.
Response given: Yes

Challenge: Assess whether reported z-score for "COCCOC(=O)N1C(=O)[C@@]2(c3cc(C#CC4=CCCCC4)ccc31)[C@H](c1ccccc1OCCO)N1[C@H](c3ccccc3)[C@H](c3ccccc3)OC(=O)[C@H]1[C@@H]2C(=O)N1CCc2cc(OC)c(OC)cc2C1" sits at 0.06 or higher.
Response given: No

Challenge: Assess whether reported z-score for "COc1ccc(CCNC(=O)[C@@]2(Sc3ccc(C)cc3)CC(=O)N(Cc3cc(C(F)(F)F)cc(C(F)(F)F)c3)[C@@H]2c2ccc(CO)cc2I)cc1" sits at 0.06 or higher.
Response given: Yes
